Values from PubChem BioAssay (NCI)

Tested on: UACC-257 melanoma
TEST_SUMMARY: NCI-60 one-dose screen, 48 h (100 = growth as untreated, 0 = no growth, -100 = all killed)
MEASUREMENT_CONTEXT: 10 µM unless noted
This is part of a sample that, as a whole, favours compounds with a hit. Of some 83,000 tested, about 20% had one in any assay.
Field 'label' (enum: fulfilled / not fulfilled). Set to fulfilled when growth is strictly under 80%; else not fulfilled.

COMPOUND	ASSIGNED_CLASS
COc1ccc(N2N=C(c3ccc4c(c3)OCO4)CC2c2cccc(NC(=O)CCCNS(=O)(=O)c3ccc(F)cc3)c2)cc1 (stereo not drawn)	fulfilled
O=c1[nH]c2ccc(Cl)cc2cc1CSc1nccc(-c2ccc(Cl)cc2)n1	fulfilled
C=Cn1cc(C(=O)O)c(=O)c2cc(F)c(N3CCN(c4nccc(-c5nccs5)n4)CC3)cc21	fulfilled

Query: Quick check: does "COc1cc2oc(-c3cccc(NC(=O)[C@H](Cc4ccccc4)NC(=O)OC(C)(C)C)c3)cc(=O)c2c(OC)c1OC" have growth under 80%?
Reply: fulfilled

Query: Quick check: does CCCCCCCS(=O)(=O)N1CCCC(C(=O)Nc2nc3ccc(NC(=O)c4ccc(F)c(OC)c4F)cc3s2)C1 (stereo not drawn) have growth under 80%?
Reply: fulfilled

Query: Quick check: does "OCNc1ccc(-n2cnc3cc(-c4ccc(O)cc4)ccc32)cc1C(F)(F)F" have growth under 80%?
Reply: fulfilled

Query: Quick check: does "COc1ccc(C(=O)/C=C/c2cccc(Cl)c2Cl)cc1S(N)(=O)=O" have growth under 80%?
Reply: fulfilled

====

Tested on: SF-539 CNS
TEST_SUMMARY: NCI-60 one-dose screen, 48 h (100 = growth as untreated, 0 = no growth, -100 = all killed)
MEASUREMENT_CONTEXT: 10 µM unless noted
About 83,000 compounds went through this panel and 20% of them were active in at least one assay; those are over-represented in the sample as a whole.
Each item that follows carries a reported growth.
Express it in %; write the number only.

MOLECULE	UNIT_OF_MEASURE	growth
COc1cc(OC)cc(C(=O)Nc2cccc(-c3cn(-c4ccc(S(N)(=O)=O)cc4)nn3)c2)c1	%	60.3

Query: What growth value was documented for this molecule, "O=C(COc1ccc(NC(=O)Nc2ccccc2)cc1)N=Nc1c(O)[nH]c2ccc([N+](=O)[O-])cc12" ?
Reply: -70.5

Query: What growth value was documented for this molecule, CCS(=O)(=O)N1CCCC(C(=O)Nc2nc3ccc(NC(=O)c4ccc(F)c(OC)c4F)cc3s2)C1 (centres undefined) ?
Reply: 57.6

Query: What growth value was documented for this molecule, "COc1ccc(C(=O)/C=C/c2cc3c(cc2Br)OCO3)cc1S(N)(=O)=O" ?
Reply: -89.2

====

System: HCT-15 colon
TEST_SUMMARY: NCI-60 one-dose screen, 48 h (100 = growth as untreated, 0 = no growth, -100 = all killed)
MEASUREMENT_CONTEXT: 10 µM unless noted
The panel holds about 83,000 compounds, 20% with a hit somewhere; the sample as a whole holds those more often.
Each item that follows carries a reported growth.
Express it in %; write the number only.

COMPOUND	growth / %
Cc1ccc(NCC(=O)Cn2cc(COc3ccc(C=Nc4cnc5ccccc5c4)cc3)nn2)cc1	112

Query: What growth value was documented for this compound, C=C1CCC2C3(C)COC(c4ccccc4)OC3CCC2(C)C1CC(Sc1ccccc1)C1=CCOC1=O (stereo not given) ?
Reply: 5.46

Query: What growth value was documented for this compound, "CCN(CC)c1ccnc(CNCCSC(c2ccccc2)(c2ccccc2)c2ccc(C)cc2)c1" ?
Reply: -92.4

Query: What growth value was documented for this compound, C=C1CC[C@@H]2[C@]3(C)COC(c4cn[nH]c4-c4cccc(Cl)c4)O[C@@H]3CC[C@@]2(C)[C@@H]1C/C=C1/C(=O)OCC1O (stereo not given in full) ?
Reply: -59.2

Query: What growth value was documented for this compound, "Cc1ccc(S(=O)(=O)c2nc(S(=O)(=O)c3ccc(C)cc3)c(Cl)s2)cc1" ?
Reply: -87.6

Query: What growth value was documented for this compound, CC1CN(c2oc(-c3ccc([N+](=O)[O-])cc3)nc2C#N)CC(C)O1 (stereo not given) ?
Reply: 97.1

Query: What growth value was documented for this compound, COCOc1ccc2c(=O)c(C)c(C(=O)N[C@@H](Cc3ccccc3)C(O)C(=O)NCCc3ccc(OC)cc3)oc2c1 (stereo not given in full) ?
Reply: 102

Query: What growth value was documented for this compound, "COc1ccc(-c2nc3cc(C)ccc3n2CC(=O)N=Nc2c(O)[nH]c3ccc(Cl)cc23)cc1" ?
Reply: -71.2

Query: What growth value was documented for this compound, "O=C(c1ccccc1)C(c1c[nH]c2ccccc12)c1c[nH]c2ccccc12" ?
Reply: 13

Query: What growth value was documented for this compound, "CC(=O)Oc1ccccc1C(=O)[Se]C(=NC1CCCCC1)NC1CCCCC1" ?
Reply: -73.5

Query: What growth value was documented for this compound, "O=C(/C=C/Nc1ccc(Cl)cc1)c1ccc2c(c1)Nc1ccccc1S2" ?
Reply: 67.1

Query: What growth value was documented for this compound, "C/C(=N\N=C\c1cc([N+](=O)[O-])ccc1Cl)c1ccc2c(c1)Nc1ccccc1S2" ?
Reply: 72.4

Query: What growth value was documented for this compound, "COc1ccc(-c2nc(SCC(C)C)nc(NCCc3c[nH]c4ccccc34)c2C#N)cc1" ?
Reply: 29.4

====

System: KM12 colon
TEST_SUMMARY: NCI-60 one-dose screen, 48 h (100 = growth as untreated, 0 = no growth, -100 = all killed)
MEASUREMENT_CONTEXT: 10 µM unless noted
Compounds without any hit were thinned out: in the full panel of roughly 83,000, 20% have a hit.
Field 'label' (enum: Y / N). Set to Y when growth is strictly under 80%; else N.

COMPOUND	ASSIGNED_CLASS
CC1(C)CC[C@]2(C(=O)O)CC[C@]3(C)C(=CCC4[C@@]5(C)C[C@@H](O)[C@@H]6OC(c7ccccc7Br)OC[C@@]6(C)C5CC[C@]43C)C2C1 (stereo partly drawn)	Y
O=C(COc1ccc(NC(=O)Nc2ccccc2)cc1)N=Nc1c(O)[nH]c2ccc([N+](=O)[O-])cc12	Y
Cc1cc(C)n(-c2ccc3nnc(-c4ccccc4)n3n2)n1	N
CC12CC[C@@H]3[C@]4(C)COC(c5cn[nH]c5-c5ccc(Br)cc5)O[C@@H]4CC[C@@]3(C)[C@@H]1CC(C1=CCOC1=O)O2 (stereo partly drawn)	Y
O=C(NNc1nc2cc(C(F)(F)F)ccc2n2cccc12)c1cnccn1	Y
O=C(CSc1nc2ccccc2c(=O)[nH]1)NCCN1CCCCC1	N

Query: Quick check: does "O=C(/C=C/c1cccc(OCc2ccc(F)cc2)c1)c1nc2ccccc2[nH]1" have growth under 80%?
Reply: Y

Query: Quick check: does "N/C(=N\c1nc2ccccc2s1)NC(=O)NCCCCCCO" have growth under 80%?
Reply: Y

Query: Quick check: does "C[C@H](Nc1nc(NCCc2ccccc2)nc2ccccc12)c1ccccc1" have growth under 80%?
Reply: Y

Query: Quick check: does "COc1cc(-c2cc(-c3cccc(OCC(=O)O)c3)[nH]c(=O)c2C#N)cc(OC)c1OC" have growth under 80%?
Reply: N

Query: Quick check: does "COc1ccc(/C=C2\C(=N)N=C(SCc3nc4ccccc4[nH]3)NC2=O)cc1" have growth under 80%?
Reply: N

Query: Quick check: does O=C(NNc1nc2cc(F)ccc2n2c(CN3CC4CNCC4C3)ccc12)c1ccncn1 (stereo not drawn) have growth under 80%?
Reply: Y

Query: Quick check: does O=C(c1ccc(OCCN2CCOCC2)cc1)C1[C@H](c2ccc(Cl)cc2)[C@@H](c2ccccc2)NC12C(=O)Nc1ccc(Br)cc12 (stereo partly drawn) have growth under 80%?
Reply: Y

====

Each item that follows carries a reported growth.
System: SF-539 CNS
TEST_SUMMARY: NCI-60 one-dose screen, 48 h (100 = growth as untreated, 0 = no growth, -100 = all killed)
MEASUREMENT_CONTEXT: 10 µM unless noted
This is part of a sample that, as a whole, favours compounds with a hit. Of some 83,000 tested, about 20% had one in any assay. The source made the active and inactive calls. Rule for the calls: active = growth percent below 10; inactive = the rest.

Query: What growth value was documented for this molecule, "COc1ccc(C(=O)/C=C/c2cccc(Cl)c2Cl)cc1S(N)(=O)=O" ?
Reply: -75.5% (active)

Query: What growth value was documented for this molecule, "Cc1cccc(NC(=O)CN2CCN(c3ncnc4c3cnn4-c3ccccc3)CC2)c1" ?
Reply: 102% (inactive)

Query: What growth value was documented for this molecule, "CC(=O)c1c(N)c(C#N)cn1-c1ccc(Cl)cc1Cl" ?
Reply: 99.9% (inactive)

Query: What growth value was documented for this molecule, "CCN(CC)c1ccnc(CNCCSC(c2ccccc2)(c2ccccc2)c2ccc(C)cc2)c1" ?
Reply: -97.5% (active)

Query: What growth value was documented for this molecule, O=c1oc2ccccc2cc1-c1csc(N2N=C(c3ccccc3)CC2c2ccc(N3CCOCC3)cc2)n1 (centres undefined) ?
Reply: 100% (inactive)

Query: What growth value was documented for this molecule, "CC(=O)Nc1ccc(-n2cnc3ccc(-c4ccc(O)cc4)cc32)cc1" ?
Reply: 34.2% (inactive)

Query: What growth value was documented for this molecule, CN(C)c1nc(NCCNS(=O)(=O)c2ccc(C3=Nc4c(N)nc(N)nc4NC(c4ccc(C(F)(F)F)cc4)C3)cc2)nc(Nc2ccc(F)cc2)n1 (centres undefined) ?
Reply: -65.4% (active)

Query: What growth value was documented for this molecule, CC(=O)OCC1OC(OC2C(COC(C)=O)OC(n3cc(COc4ccc5ccc(=O)oc5c4)nn3)C(OC(C)=O)C2OC(C)=O)C(OC(C)=O)C(OC(C)=O)C1OC(C)=O (centres undefined) ?
Reply: 100% (inactive)

Query: What growth value was documented for this molecule, "CNC(=O)c1cccc(NC(=O)c2ccc3c(c2)nnn3/C(C#N)=C/c2ccccn2)c1" ?
Reply: -72.8% (active)
